Target: Anti-ANGPTL3 polyclonal antibody (ABC83, Sigma)
Test: SPR (Biacore T200), antibody immobilised on CM5, peptide as analyte at 1 mM
Square brackets hold non-standard residues; d marks the D form. Ends that are not written are not given here. APPA = 2-aminophenyl pentanoic acid; hArg = N=C(N)NCCCC[C@H](N)C(=O)O; Cit = NC(=O)NCCC[C@H](N)C(=O)O; Aib = CC(C)(N)C(=O)O
experimental-readout: Relative response (RU)

[
  {
    "binder": "RFAMLDDVKILANGLLQLGHGLKDFVHKTKGQI [Peptide of SEQ ID NO. 1 (…)]",
    "experimental-readout": "Relative response",
    "observed-result": 4830
  },
  {
    "binder": "CRF[Aib]MLDDVKILANGLLQLGHGLKDFVHKTKGQI [Peptide of SEQ ID NO. 84 (C-RF-Aib-…)]",
    "experimental-readout": "Relative response",
    "observed-result": 5810
  },
  {
    "binder": "[Cit]FAMLDDV[Cit]ILANGLLQLGHGLKDFVHKTKGQI [Peptide of SEQ ID NO. 79 (Cit-FAMLDDV-Cit-…)]",
    "experimental-readout": "Relative response",
    "observed-result": 6150
  },
  {
    "binder": "[hArg]FAMLDDVKILANGLLQLGHGLKDFVHKTKGQI [Peptide of SEQ ID NO. 80 (Har-…)]",
    "experimental-readout": "Relative response",
    "observed-result": 5310
  },
  {
    "binder": "R[APPA]AMLDDVKILANGLLQLGHGLKDFVHKTKGQI [Peptide of SEQ ID NO. 2 (R-APPA-…)]",
    "experimental-readout": "Relative response",
    "observed-result": 5670
  },
  {
    "binder": "CRFAMLDDVKILANGLLQLGHGLKDFVHKTKGQI [Peptide of SEQ ID NO. 49 (…)]",
    "experimental-readout": "Relative response",
    "observed-result": 5460
  },
  {
    "binder": "C[Cit]FAMLDDVLILANGLLQLGHGLKDFVHKTKGQI [Peptide of SEQ ID NO. 85 (C-Cit-…)]",
    "experimental-readout": "Relative response",
    "observed-result": 4920
  },
  {
    "binder": "CRFAMLDDV[Cit]ILANGLLQLGHGLKDFVHKTKGQI [Peptide of SEQ ID NO. 87 (C-RFAMLDDV-Cit-…)]",
    "experimental-readout": "Relative response",
    "observed-result": 5820
  }
]
